Data origin: ChEMBL document CHEMBL4813969

assay: Clearance in mouse at 10 mg/kg, po; assay type: ADME, organism-based; conditions: in vivo
metric: CL/F (mL/min/kg)
One number for each entry, in mL/min/kg.

Just so you know, measured CL/F for `Cc1ccc(C(=O)Nc2cc(C(=O)O)cc(-c3ccoc3)c2)cc1` came out at 6.03

----------
test: Cmax in mouse at 5 mg/kg, iv; assay type: ADME, organism-based; set-up: route intravenous, dose 5 mg/kg; conditions: in vivo
metric: Cmax (ng/mL)
Numbers only, in ng/mL.

Per the record, `Cc1ccc(C(=O)Nc2cc(C(=O)O)cc(-c3ccoc3)c2)cc1` has Cmax of 19300

----------
assay: Metabolic stability in human liver microsomes assessed as half life at […] incubated for 45 mins by LC-MS/MS analysis; format: ADME, Microsome
metric: half-life

half-life reported for this compound `Cc1ccc(C(=O)Nc2cc(C(=O)O)cc(-c3ccoc3)c2)cc1` : > 1 h

----------
assay: Oral bioavailability in mouse at 10 mg/kg; type: ADME, organism-based; conditions: in vivo
metric: bioavailability (%)
Give bare numbers, in %.

Record excerpt, results attached:
[[record]]
compound = "O=C(O)c1cc(-c2ccc(C3CCNCC3)cc2)c2ccc(-c3ccc(C(F)(F)F)cc3)cc2c1 [PPTN]"
metric = "bioavailability"
quantitative_result = 7

[[record]]
compound = "Cc1ccc(C(=O)Nc2cc(C(=O)O)cc(-c3ccc(C4CCNCC4)cc3)c2)cc1"
metric = "bioavailability"
quantitative_result = 6


// switching to the query compound
Item: `Cc1ccc(C(=O)Nc2cc(C(=O)O)cc(-c3ccoc3)c2)cc1` | bioavailability: 48.3

----------
experiment: Volume of distribution at steady state in mouse at 5 mg/kg, iv; format: ADME, organism-based; conditions: in vivo, read-out: Vdss
metric: Vd (L/kg)
One number for each entry, in L/kg.

Lab book: Vd of `Cc1ccc(C(=O)Nc2cc(C(=O)O)cc(-c3ccoc3)c2)cc1` noted as 0.782

----------
target: P2Y purinoceptor 14 (Homo sapiens) (UniProt Q15391); conditions: HEK293, filed as antagonist, dose 100.0 nM, time 30.0 min
Sequence (Q15391 whole entry): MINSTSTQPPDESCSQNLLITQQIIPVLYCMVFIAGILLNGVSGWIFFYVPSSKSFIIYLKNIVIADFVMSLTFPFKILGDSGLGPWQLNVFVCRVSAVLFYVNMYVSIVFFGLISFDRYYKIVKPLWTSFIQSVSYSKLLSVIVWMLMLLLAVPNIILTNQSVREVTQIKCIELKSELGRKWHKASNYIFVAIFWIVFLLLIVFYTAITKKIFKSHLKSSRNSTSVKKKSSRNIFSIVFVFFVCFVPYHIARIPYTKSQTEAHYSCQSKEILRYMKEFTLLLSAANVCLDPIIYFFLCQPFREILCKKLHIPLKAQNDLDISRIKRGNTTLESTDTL
metric: inhibition
# answer = value followed by unit

[[record]]
test_smiles = "Cc1ccc(C(=O)Nc2cc(C(=O)O)cc(-c3ccc(C)s3)c2)cc1"
target_or_test_system = "P2Y purinoceptor 14 (Homo sapiens) (UniProt Q15391)"
metric = "inhibition"
result = "60.2%"

[[record]]
test_smiles = "Cc1ccc(C(=O)Nc2cc(C(=O)O)cc(-c3ccc[nH]3)c2)cc1"
target_or_test_system = "P2Y purinoceptor 14 (Homo sapiens) (UniProt Q15391)"
metric = "inhibition"
result = "46%"

[[record]]
test_smiles = "Cc1ccc(C(=O)Nc2cc(C(=O)O)cc(-c3ccco3)c2)cc1"
target_or_test_system = "P2Y purinoceptor 14 (Homo sapiens) (UniProt Q15391)"
metric = "inhibition"
result = "61.1%"

[[record]]
test_smiles = "Cc1ccc(C(=O)Nc2cc(C(=O)O)cc(-c3cncnc3)c2)cc1"
target_or_test_system = "P2Y purinoceptor 14 (Homo sapiens) (UniProt Q15391)"
metric = "inhibition"
result = "65.7%"

[[record]]
test_smiles = "Cc1ccc(C(=O)Nc2cc(C(=O)O)cc(-c3ccncc3)c2)cc1"
target_or_test_system = "P2Y purinoceptor 14 (Homo sapiens) (UniProt Q15391)"
metric = "inhibition"
result = "72.1%"


Can you give me inhibition for all of these, one by one?
1. COc1ccc(-c2cc(NC(=O)c3ccc(C)cc3)cc(C(=O)O)c2)cc1
2. Cc1ccc(C(=O)Nc2cc(C(=O)O)cc(-c3ccc(C4CCNCC4)cc3)c2)cc1
3. Cc1ccc(C(=O)Nc2cc(C(=O)O)cc(-c3cccnc3)c2)cc1

Out:
79.1%
85.3%
79.1%

Hello, I would appreciate it if you could give inhibition for each entry below.
1. Cc1ccc(C(=O)Nc2cc(C(=O)O)cc(-c3ccccc3)c2)cc1
2. CC(=O)c1ccc(-c2cc(NC(=O)c3ccc(C)cc3)cc(C(=O)O)c2)s1

Out:
87%
43.7%

For each of the items listed, what is its inhibition?
1. Cc1ccc(C(=O)Nc2cc(C(=O)O)cc(-c3c(C)noc3C)c2)cc1
2. COc1ncc(-c2cc(NC(=O)c3ccc(C)cc3)cc(C(=O)O)c2)cn1
3. Cc1ccc(C(=O)Nc2cc(C(=O)O)cc(-c3cccs3)c2)cc1

Out:
82.3%
72.5%
68.8%
